# TESTED_ON: CaV3.2 (Homo sapiens, UniProt O95180)
# Construct: expressed in transfected cells; host or cells: unnamed doxycycline-inducible cell line
# Sequence (O95180 whole entry): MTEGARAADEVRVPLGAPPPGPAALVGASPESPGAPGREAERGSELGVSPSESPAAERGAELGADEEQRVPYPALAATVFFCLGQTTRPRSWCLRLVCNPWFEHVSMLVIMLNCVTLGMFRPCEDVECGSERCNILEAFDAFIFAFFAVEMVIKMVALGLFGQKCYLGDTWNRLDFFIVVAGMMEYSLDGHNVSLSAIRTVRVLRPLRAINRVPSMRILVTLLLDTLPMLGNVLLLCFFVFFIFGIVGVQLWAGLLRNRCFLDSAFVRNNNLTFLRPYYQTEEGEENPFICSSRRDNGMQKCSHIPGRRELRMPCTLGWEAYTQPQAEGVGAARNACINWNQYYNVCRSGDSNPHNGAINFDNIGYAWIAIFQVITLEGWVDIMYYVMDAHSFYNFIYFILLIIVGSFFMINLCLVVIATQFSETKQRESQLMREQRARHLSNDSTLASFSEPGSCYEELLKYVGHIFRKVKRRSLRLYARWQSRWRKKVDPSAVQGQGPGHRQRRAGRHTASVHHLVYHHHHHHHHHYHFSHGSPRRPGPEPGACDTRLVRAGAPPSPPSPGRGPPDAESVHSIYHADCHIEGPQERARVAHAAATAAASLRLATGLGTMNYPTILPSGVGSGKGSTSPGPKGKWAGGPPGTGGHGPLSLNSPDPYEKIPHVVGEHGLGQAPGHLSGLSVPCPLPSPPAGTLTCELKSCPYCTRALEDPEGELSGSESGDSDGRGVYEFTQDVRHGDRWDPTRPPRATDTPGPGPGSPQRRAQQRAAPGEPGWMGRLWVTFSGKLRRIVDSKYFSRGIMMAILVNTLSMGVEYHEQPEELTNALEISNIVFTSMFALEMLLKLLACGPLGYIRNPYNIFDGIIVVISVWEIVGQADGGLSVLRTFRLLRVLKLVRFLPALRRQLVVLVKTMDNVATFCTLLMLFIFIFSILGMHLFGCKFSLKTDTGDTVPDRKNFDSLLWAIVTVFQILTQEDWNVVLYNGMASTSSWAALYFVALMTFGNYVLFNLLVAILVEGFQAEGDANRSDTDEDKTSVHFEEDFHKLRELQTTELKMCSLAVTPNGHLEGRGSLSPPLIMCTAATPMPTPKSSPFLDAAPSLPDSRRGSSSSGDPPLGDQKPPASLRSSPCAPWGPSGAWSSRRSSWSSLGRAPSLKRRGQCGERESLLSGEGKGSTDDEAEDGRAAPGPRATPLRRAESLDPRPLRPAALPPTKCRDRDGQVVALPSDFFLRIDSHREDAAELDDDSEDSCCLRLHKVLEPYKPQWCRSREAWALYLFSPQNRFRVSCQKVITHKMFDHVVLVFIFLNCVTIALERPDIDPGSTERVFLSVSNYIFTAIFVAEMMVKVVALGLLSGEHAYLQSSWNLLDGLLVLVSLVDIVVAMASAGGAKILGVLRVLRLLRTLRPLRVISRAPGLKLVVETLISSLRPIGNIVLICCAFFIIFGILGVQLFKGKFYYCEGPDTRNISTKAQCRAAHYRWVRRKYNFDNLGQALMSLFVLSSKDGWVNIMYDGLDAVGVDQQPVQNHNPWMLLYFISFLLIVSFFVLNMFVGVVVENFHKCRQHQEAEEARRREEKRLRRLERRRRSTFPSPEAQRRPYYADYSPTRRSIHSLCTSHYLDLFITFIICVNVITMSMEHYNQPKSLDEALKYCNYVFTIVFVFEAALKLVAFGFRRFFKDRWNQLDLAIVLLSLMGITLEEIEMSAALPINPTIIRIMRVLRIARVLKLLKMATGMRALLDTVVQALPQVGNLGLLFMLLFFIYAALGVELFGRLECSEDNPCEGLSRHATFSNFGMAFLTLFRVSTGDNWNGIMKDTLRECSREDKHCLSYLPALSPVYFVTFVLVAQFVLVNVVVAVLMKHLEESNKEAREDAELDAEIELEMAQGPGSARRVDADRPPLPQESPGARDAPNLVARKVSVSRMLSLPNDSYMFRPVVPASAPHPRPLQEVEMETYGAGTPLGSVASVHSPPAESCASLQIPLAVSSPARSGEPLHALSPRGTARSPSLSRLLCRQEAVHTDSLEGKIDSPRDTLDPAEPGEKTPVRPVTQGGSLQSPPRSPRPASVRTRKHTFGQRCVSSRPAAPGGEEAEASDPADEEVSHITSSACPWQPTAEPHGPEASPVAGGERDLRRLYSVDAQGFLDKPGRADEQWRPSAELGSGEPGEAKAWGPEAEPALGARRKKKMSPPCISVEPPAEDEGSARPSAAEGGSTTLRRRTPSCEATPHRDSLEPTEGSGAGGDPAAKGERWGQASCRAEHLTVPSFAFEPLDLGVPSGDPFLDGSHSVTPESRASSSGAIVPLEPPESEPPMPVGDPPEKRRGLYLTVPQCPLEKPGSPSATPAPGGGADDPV
# METHOD_DESCRIPTION: High-throughput CaV3.2/Kir2.3 T-type FLIPR fluorescent assay
# Type: cell-based
# EXPERIMENTAL_SETUP: Table 5; Fluo-4 FLIPR; closed or inactivated state not stated
MEASURE: pIC50
On this scale, pIC50 is minus log10 of a concentration expressed in M (mol/L).

# get_value(readout='pIC50', item= Cc1cc(Cl)ccc1C(=O)NCC(C)(C)S(=O)(=O)c1cccc(C(F)(F)F)c1 )
5.29

# get_value(readout='pIC50', item= CC(C)(C(=O)N1CCN(c2cc(Cl)cc(Cl)c2)CC1)S(=O)(=O)c1cccc(C(F)(F)F)c1 )
5.12

# get_value(readout='pIC50', item= CC(C)(CNC(=O)c1ccc(C(F)(F)F)nc1)S(=O)(=O)c1cccc(C(F)(F)F)c1 )
5.27

# get_value(readout='pIC50', item= CC(C)(CNC(=O)c1ccc(Cl)cc1)S(=O)(=O)c1cccc(C(F)(F)F)c1 )
5.19

# get_value(readout='pIC50', item= CC(C)(CCN1Cc2nc(C(F)(F)F)ccc2C1=O)S(=O)(=O)c1cccc(C(F)(F)F)c1 )
5.26

# get_value(readout='pIC50', item= CN(CCc1c[nH]c2ccc(F)cc12)C(=O)C(C)(C)S(=O)(=O)c1cccc(C(F)(F)F)c1 )
5.23

# get_value(readout='pIC50', item= CC(C)(C(=O)NCC(O)c1ccc(C(F)(F)F)cc1)S(=O)(=O)c1cccc(C(F)(F)F)c1 (stereo not shown) )
5.29

# get_value(readout='pIC50', item= COc1cc(C)ccc1C(=O)NCC(C)(C)S(=O)(=O)c1cccc(C(F)(F)F)c1 )
5.14

# get_value(readout='pIC50', item= CC(C)Oc1cccnc1C(C)(C)NC(=O)C(C)(C)S(=O)(=O)c1cccc(C(F)(F)F)c1 )
5.45

# get_value(readout='pIC50', item= CC(C)(C(=O)N1CCC(c2cccc(Cl)c2)CC1)S(=O)(=O)c1cccc(C(F)(F)F)c1 )
5.30

# get_value(readout='pIC50', item= CC(C)(C(=O)NC1CCN(c2ccc(C(F)(F)F)cc2)CC1)S(=O)(=O)c1cccc(C(F)(F)F)c1 )
5.52

# get_value(readout='pIC50', item= CC(C)(C(=O)N1CCC(c2nc3ccccc3[nH]2)CC1)S(=O)(=O)c1cccc(C(F)(F)F)c1 )
5.29

# get_value(readout='pIC50', item= CC(C)(CNC(=O)C(C)(C)S(=O)(=O)c1cccc(C(F)(F)F)c1)S(=O)(=O)c1cccc(C(F)(F)F)c1 )
5.54

###

I'd be grateful if you could share measured pIC50 for these entries.
# TESTED_ON: CaV3.1 (Homo sapiens, UniProt O43497)
# Construct: expressed in transfected cells; host or cells: unnamed doxycycline-inducible cell line
# Sequence (O43497 whole entry): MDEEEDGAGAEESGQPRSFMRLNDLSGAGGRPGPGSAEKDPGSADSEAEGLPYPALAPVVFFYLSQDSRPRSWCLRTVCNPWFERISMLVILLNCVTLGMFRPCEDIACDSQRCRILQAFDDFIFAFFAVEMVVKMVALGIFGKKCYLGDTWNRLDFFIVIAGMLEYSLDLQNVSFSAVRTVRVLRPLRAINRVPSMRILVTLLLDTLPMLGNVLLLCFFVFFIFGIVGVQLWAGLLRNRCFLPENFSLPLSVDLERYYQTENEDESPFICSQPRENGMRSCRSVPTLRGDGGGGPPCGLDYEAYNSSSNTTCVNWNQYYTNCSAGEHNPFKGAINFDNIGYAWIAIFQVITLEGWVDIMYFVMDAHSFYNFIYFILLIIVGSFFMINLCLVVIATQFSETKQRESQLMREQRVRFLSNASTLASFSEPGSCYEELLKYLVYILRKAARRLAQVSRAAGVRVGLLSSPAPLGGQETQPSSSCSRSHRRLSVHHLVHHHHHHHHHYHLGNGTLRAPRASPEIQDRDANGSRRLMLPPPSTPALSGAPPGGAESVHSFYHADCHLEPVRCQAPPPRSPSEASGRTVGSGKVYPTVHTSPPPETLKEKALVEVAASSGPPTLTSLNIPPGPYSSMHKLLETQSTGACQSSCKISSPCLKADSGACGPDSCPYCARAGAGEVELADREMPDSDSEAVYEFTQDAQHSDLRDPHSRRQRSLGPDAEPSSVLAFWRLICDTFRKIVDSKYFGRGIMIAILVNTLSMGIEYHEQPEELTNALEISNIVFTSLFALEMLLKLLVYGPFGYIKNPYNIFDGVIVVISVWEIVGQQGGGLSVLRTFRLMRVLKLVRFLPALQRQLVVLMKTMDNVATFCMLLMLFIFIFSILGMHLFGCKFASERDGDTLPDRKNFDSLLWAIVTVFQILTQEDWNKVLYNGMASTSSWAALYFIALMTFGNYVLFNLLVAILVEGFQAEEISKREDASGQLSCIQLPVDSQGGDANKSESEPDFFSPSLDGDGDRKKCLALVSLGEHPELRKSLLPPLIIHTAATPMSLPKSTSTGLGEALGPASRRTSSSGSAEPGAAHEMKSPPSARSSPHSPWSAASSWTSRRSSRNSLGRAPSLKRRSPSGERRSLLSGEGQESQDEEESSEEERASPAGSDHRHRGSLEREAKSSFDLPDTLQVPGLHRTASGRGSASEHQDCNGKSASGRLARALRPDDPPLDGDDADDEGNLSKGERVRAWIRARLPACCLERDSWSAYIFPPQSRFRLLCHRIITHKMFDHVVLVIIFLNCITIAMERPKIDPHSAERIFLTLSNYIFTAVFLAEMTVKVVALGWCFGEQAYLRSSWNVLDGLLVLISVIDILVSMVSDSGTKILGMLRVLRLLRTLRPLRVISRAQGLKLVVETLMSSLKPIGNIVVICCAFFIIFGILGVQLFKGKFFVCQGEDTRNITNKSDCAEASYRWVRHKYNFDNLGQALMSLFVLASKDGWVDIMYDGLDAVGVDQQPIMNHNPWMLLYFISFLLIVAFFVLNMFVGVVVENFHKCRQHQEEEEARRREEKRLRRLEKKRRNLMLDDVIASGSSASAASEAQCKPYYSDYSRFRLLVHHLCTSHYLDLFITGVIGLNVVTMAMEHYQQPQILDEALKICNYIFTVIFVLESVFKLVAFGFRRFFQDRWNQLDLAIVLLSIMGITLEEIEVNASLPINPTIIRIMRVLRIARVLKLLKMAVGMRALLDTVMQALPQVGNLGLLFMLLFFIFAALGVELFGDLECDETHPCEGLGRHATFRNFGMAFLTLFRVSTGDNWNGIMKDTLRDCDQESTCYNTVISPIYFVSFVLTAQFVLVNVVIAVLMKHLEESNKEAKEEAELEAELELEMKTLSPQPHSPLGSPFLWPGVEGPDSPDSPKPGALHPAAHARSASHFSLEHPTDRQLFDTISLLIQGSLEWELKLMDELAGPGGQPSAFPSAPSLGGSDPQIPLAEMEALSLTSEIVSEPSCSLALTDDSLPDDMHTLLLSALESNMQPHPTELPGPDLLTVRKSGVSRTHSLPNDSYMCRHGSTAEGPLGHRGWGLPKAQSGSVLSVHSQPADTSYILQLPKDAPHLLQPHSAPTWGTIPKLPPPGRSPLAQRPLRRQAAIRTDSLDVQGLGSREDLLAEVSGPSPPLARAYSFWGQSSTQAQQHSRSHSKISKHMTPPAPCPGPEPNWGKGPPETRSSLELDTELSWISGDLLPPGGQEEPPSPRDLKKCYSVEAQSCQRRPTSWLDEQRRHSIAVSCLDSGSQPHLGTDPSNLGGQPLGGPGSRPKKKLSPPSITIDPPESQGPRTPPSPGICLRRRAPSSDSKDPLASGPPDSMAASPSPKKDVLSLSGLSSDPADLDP
# METHOD_DESCRIPTION: High-throughput CaV3.1 T-type FLIPR fluorescent assay
# Assay type: cell-based
# EXPERIMENTAL_SETUP: Table 4; Fluo-4 FLIPR
# Procedure: Cells were plated in 384-well, clear-bottom, black-walled, poly-D-lysine coated plates (Becton Dickinson, Franklin Lake, N.J.) 2 days prior to use in the FLIPR assay. […] To assess the quality of the FLIPR assays the Z-factor (2) was used to quantify the suitability of the assay conditions using the following equation: […] Data are expressed as mean and standard deviation (SD).
On this scale, pIC50 is minus log10 of a concentration expressed in M (mol/L).

# get_value(readout='pIC50', item= O=C(NCc1ccc(S(=O)(=O)c2cccc(C(F)(F)F)c2)cc1)c1cnc(C(F)(F)F)nc1 [Compound 8] )
5.67

# get_value(readout='pIC50', item= CC(C)S(=O)(=O)c1cc(C(F)(F)F)cnc1C(=O)NCc1ccccc1S(=O)(=O)c1cccc(C(F)(F)F)c1 [Compound 44] )
6.14

# get_value(readout='pIC50', item= O=C(NCc1ccc(S(=O)(=O)c2cccc(C(F)(F)F)c2)cc1)c1ccc(C(F)(F)F)cn1 [Compound 4] )
5.83

# get_value(readout='pIC50', item= O=C(NCc1ccc(S(=O)(=O)c2cccc(C(F)(F)F)c2)cn1)c1ccc(C(F)(F)F)cn1 [Compound 91] )
5.73

# get_value(readout='pIC50', item= O=C(NCc1cccc(S(=O)(=O)c2cccc(C(F)(F)F)c2)c1)c1cnc(C(F)(F)F)nc1 [Compound 26] )
5.73

# get_value(readout='pIC50', item= CS(=O)(=O)c1cc(C(F)(F)F)ccc1C(=O)NCc1cccc(S(=O)(=O)c2cccc(C(F)(F)F)c2)c1 [Compound 28] )
5.82

# get_value(readout='pIC50', item= N[C@@H](C(=O)NCc1ccc(S(=O)(=O)c2cccc(C(F)(F)F)c2)cc1)c1ccccc1 [Compound 63] )
6.24

# get_value(readout='pIC50', item= CS(=O)(=O)c1cc(C(F)(F)F)cnc1C(=O)NCc1ccccc1S(=O)(=O)c1cccc(C(F)(F)F)c1 [Compound 43] )
5.85

# get_value(readout='pIC50', item= Cn1nc(C(F)(F)F)cc1C(=O)NCc1ccccc1S(=O)(=O)c1cccc(C(F)(F)F)c1 [Compound 41] )
6.04

# get_value(readout='pIC50', item= O=C1c2cc(C(F)(F)F)nn2CCN1Cc1cccc(S(=O)(=O)c2cccc(C(F)(F)F)c2)c1 [Compound 34] )
5.79

# get_value(readout='pIC50', item= O=C(NCc1ccc(S(=O)(=O)c2cccc(C(F)(F)F)c2)cc1)c1ccc(Cl)c(OC(F)(F)F)c1 [Compound 15] )
5.86

# get_value(readout='pIC50', item= O=C1c2cc(C(F)(F)F)nn2CCN1Cc1ccccc1S(=O)(=O)c1cccc(C(F)(F)F)c1 [Compound 35] )
5.73

# get_value(readout='pIC50', item= CS(=O)(=O)c1cc(C(=O)NCc2ccccc2S(=O)(=O)c2cccc(C(F)(F)F)c2)cc(C(F)(F)F)n1 [Compound 42] )
5.54

# get_value(readout='pIC50', item= CS(=O)(=O)c1cc(C(F)(F)F)cnc1C(=O)NCc1cccc(S(=O)(=O)c2cccc(C(F)(F)F)c2)c1 [Compound 24] )
5.49

# get_value(readout='pIC50', item= CS(=O)(=O)c1cc(C(=O)NCc2ccc(S(=O)(=O)c3cccc(C(F)(F)F)c3)cc2)cc(C(F)(F)F)n1 [Compound 10] )
5.71

# get_value(readout='pIC50', item= O=C(NCc1ccc(S(=O)(=O)c2cccc(C(F)(F)F)c2)cc1)c1ccc(C(F)(F)F)nc1 [Compound 3] )
5.87

# get_value(readout='pIC50', item= CS(=O)(=O)c1nc(C(F)(F)F)ccc1C(=O)NCc1cccc(S(=O)(=O)c2cccc(C(F)(F)F)c2)c1 [Compound 21] )
5.04

# get_value(readout='pIC50', item= O=C(NCc1ccccc1S(=O)(=O)c1cccc(C(F)(F)F)c1)c1ccc(C(F)(F)F)cn1 [Compound 39] )
5.98

# get_value(readout='pIC50', item= O=C(NCc1ccc(S(=O)(=O)c2cccc(C(F)(F)F)c2)cc1)c1cn2cc(C(F)(F)F)ccc2n1 [Compound 13] )
5.69

# get_value(readout='pIC50', item= O=C(NCc1ccc(S(=O)(=O)c2cccc(C(F)(F)F)c2)cn1)c1ccc(C(F)(F)F)nc1 [Compound 90] )
6.05

# get_value(readout='pIC50', item= O=C(NCc1ccc(S(=O)(=O)c2cccc(C(F)(F)F)c2)cn1)c1cn2cc(C(F)(F)F)ccc2n1 [Compound 103] )
5.69

# get_value(readout='pIC50', item= O=C(NCc1ccc(S(=O)(=O)c2cccc(C(F)(F)F)c2)cc1)c1cc(F)cc(Cl)c1 [Compound 2] )
5.82

###

I'd be grateful if you could share measured pIC50 for these entries.
# TESTED_ON: CaV2.2 (Homo sapiens, UniProt Q00975)
# Construct: expressed in transfected cells; host or cells: unnamed doxycycline-inducible cell line
# METHOD_DESCRIPTION: High-throughput CaV2.2/Kir2.3 FLIPR fluorescent assay
# Type: cell-based
# EXPERIMENTAL_SETUP: Table 4; Fluo-4 FLIPR; closed or inactivated state not stated; read-out: FLIPR data CaV2.2
# Protocol: Cells were plated in 384-well, clear-bottom, black-walled, poly-D-lysine coated plates (Becton Dickinson, Franklin Lake, N.J.) 2 days prior to use in the FLIPR assay. […] To assess the quality of the FLIPR assays the Z-factor (2) was used to quantify the suitability of the assay conditions using the following equation: […] Data are expressed as mean and standard deviation (SD).
On this scale, pIC50 is minus log10 of a concentration expressed in M (mol/L).

# get_value(readout='pIC50', item= O=C(NCc1ccc(S(=O)(=O)c2cccc(C(F)(F)F)c2)cc1)c1cnc(C(F)(F)F)nc1 )
6.29

# get_value(readout='pIC50', item= O=C(NCc1ccccc1S(=O)(=O)c1cccc(C(F)(F)F)c1)c1ccnn1CC(F)(F)F )
5.78

# get_value(readout='pIC50', item= O=C(NCc1ccc(S(=O)(=O)c2cccc(C(F)(F)F)c2)cn1)c1cn2cc(C(F)(F)F)ccc2n1 )
6.08

# get_value(readout='pIC50', item= O=C(NCc1ccc(S(=O)(=O)c2cccc(C(F)(F)F)c2)cn1)c1ccnn1CC(F)(F)F )
5.88

# get_value(readout='pIC50', item= CS(=O)(=O)c1cc(C(F)(F)F)ccc1C(=O)NCc1ccc(S(=O)(=O)c2cccc(C(F)(F)F)c2)cn1 )
6.04

# get_value(readout='pIC50', item= NC1(C(=O)NCc2ccc(S(=O)(=O)c3cccc(C(F)(F)F)c3)cc2)CC1 )
5.25

# get_value(readout='pIC50', item= O=C(NCc1ccc(S(=O)(=O)c2cccc(C(F)(F)F)c2)cc1)c1cn2cc(C(F)(F)F)ccc2n1 )
6.52

# get_value(readout='pIC50', item= O=C(NCc1ccc(S(=O)(=O)c2cccc(C(F)(F)F)c2)cc1)c1ccnn1CC(F)(F)F )
6.20

# get_value(readout='pIC50', item= CO[C@H]1CN[C@@H](C(=O)NCc2ccc(S(=O)(=O)c3cccc(C(F)(F)F)c3)cc2)C1 [Compound 82] )
6.01

# get_value(readout='pIC50', item= O=C(NCc1ccc(S(=O)(=O)c2cccc(C(F)(F)F)c2)cn1)[C@H]1C[C@@H](O)CN1 )
5.23

# get_value(readout='pIC50', item= CC(C)S(=O)(=O)c1cc(C(F)(F)F)cnc1C(=O)NCc1ccccc1S(=O)(=O)c1cccc(C(F)(F)F)c1 )
6.64

# get_value(readout='pIC50', item= CS(=O)(=O)c1cc(C(F)(F)F)ccc1C(=O)NCc1ccc(S(=O)(=O)c2cccc(C(F)(F)F)c2)cc1 )
6.39

# get_value(readout='pIC50', item= CC(C)S(=O)(=O)c1cc(C(F)(F)F)cnc1C(=O)NCc1ccc(S(=O)(=O)c2cccc(C(F)(F)F)c2)cn1 )
6.19

# get_value(readout='pIC50', item= CS(=O)(=O)c1cc(C(F)(F)F)ccc1C(=O)NCc1ccccc1S(=O)(=O)c1cccc(C(F)(F)F)c1 )
6.23

# get_value(readout='pIC50', item= O=C(NCc1cccc(S(=O)(=O)c2cccc(C(F)(F)F)c2)c1)c1cc(F)cc(Cl)c1 )
6.66
